The values you see were collected from a melting point compilation (Tetko et al.; mined from patent text by program, amines drawn as free bases though some values may be those of a salt).

Hi there, I'd appreciate the recorded melting point for every entry that follows.

Reference set (8 entries):
compound="CCOC(=O)C1=C(N2CCCC2)N=C(C)C(C(=O)OCC)C1c1ccccc1C#N (stereo not given)" result="115 °C"
compound=Cc1cc(C)c2nc(C3CC3)n(Cc3ccc(C4(C(=O)O)CC=CC4)s3)c2n1 result="184 to 185 °C"
compound=COc1ccc(-c2nc(C)c([N+](=O)[O-])[nH]2)cc1 result="198 to 204 °C"
compound=NC(=S)Nc1cc(C(F)(F)F)ccc1N1CCOCC1 result="196 to 197 °C"
compound=CC(C)c1nc(C(O)(C(F)(F)F)C(F)(F)F)[nH]c1-c1ccc(S(C)(=O)=O)cc1 result="182 to 184 °C"
compound="CC1CC(C)(C)c2ccc(O)cc2O1 (stereo not given)" result="97 to 98 °C"
compound=CC(C)(C)OC(=O)Nc1ccc(-c2ccccc2F)cc1NC(=O)CC(=O)c1ccc(C#N)s1 result="201 °C"
compound=COc1cc(O)ccc1-c1nc2cnccc2[nH]1 result="255 °C"

Would you mind giving melting point for every compound in the list below?
1. CCOC(=O)C(Cl)(Cl)CCCCCCCCCCCCSc1ccc(NC(=O)c2ccc(Cl)cc2)cc1
2. O=C(Nc1nccs1)C(CC1CCCC1)c1ccc(C(F)(F)F)c(F)c1 (stereo not given)
3. CCOC(=O)c1ccc(NCCC(c2ccc(Cl)cc2)c2ccc(Cl)cc2)cc1

1: 130 to 131 °C; 2: 194 to 195 °C; 3: 112 to 117 °C

Quick one: give me melting point for each item below, same order please.
1. COc1ccc(CCOc2cccc(-c3cccc(C(=O)NCCN4CCCC4)c3)n2)cc1OC
2. CN(C)S(=O)(=O)NCC1COc2ccccc2O1 (stereo not given)
3. Cc1cc(C)n(-c2ncc(Br)c(Nc3ccc(Cl)cc3)n2)n1

["126 to 127 °C", "76 to 78 °C", "144 to 154 °C"]

Each compound below has a reported value. Please supply its melting point.
1. COCOc1ccccc1-c1cc(-c2cccc(CN=[N+]=[N-])c2)c(C#N)c(N)n1
2. CCOc1cc(-c2cc(C(F)F)n3ncc(C(=O)Nc4cccc(S(=O)(=O)N5CCOCC5)c4)c3n2)ccc1C(F)(F)F
3. O=C(c1ccccc1Cl)c1ccccc1[N+](=O)[O-]
4. Cn1cnc([N+](=O)[O-])c1Oc1ccccc1

1: 99 to 100 °C; 2: 231 °C; 3: 76 to 79 °C; 4: 116 to 118 °C

Quick request: melting point for each listed item, please.
1. NC(=O)N1C(=O)C(C(=O)c2sccc2F)c2cc(Cl)ccc21 (stereo not given)
2. O=C(Nc1cccc(O)c1)C(=O)N1CCC(Cc2ccc(F)cc2)CC1

1. 235 to 240 °C
2. 175 to 179 °C
